IC50 values by entry
molecular target: Υ-glutamylcarboxylase (Bos taurus, UniProt Q07175)
Sequence (Q07175 2-758): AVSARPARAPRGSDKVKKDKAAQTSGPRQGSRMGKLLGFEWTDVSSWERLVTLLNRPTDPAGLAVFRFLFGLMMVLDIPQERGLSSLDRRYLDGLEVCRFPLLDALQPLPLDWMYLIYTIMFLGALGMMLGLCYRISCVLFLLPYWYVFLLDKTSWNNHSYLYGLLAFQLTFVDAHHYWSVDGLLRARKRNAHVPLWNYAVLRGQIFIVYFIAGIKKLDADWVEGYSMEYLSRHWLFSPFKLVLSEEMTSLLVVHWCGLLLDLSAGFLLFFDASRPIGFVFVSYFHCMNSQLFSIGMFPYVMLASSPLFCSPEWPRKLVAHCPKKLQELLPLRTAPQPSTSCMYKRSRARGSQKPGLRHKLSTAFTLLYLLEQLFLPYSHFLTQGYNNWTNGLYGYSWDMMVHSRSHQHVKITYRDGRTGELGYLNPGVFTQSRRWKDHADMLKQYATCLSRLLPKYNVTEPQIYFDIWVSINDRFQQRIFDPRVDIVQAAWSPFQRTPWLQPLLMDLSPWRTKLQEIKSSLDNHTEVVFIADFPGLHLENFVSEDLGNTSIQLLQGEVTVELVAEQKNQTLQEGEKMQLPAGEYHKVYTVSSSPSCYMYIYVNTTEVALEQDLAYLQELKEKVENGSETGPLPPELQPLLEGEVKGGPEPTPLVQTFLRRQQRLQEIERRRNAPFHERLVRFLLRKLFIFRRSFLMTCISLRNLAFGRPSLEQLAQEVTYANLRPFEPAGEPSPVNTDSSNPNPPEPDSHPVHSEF
MEASURED_PROPERTY: IC50 (µM)

SAMPLE_SMILES: COC1=C(OC)C(=O)C(CC=C(C)CCC=C(C)CCC=C(C)CCC=C(C)CCC=C(C)CCC=C(C)CCC=C(C)CCC=C(C)CCC=C(C)CCC=C(C)C)=C(C)C1=O
TARGET_OF_ASSAY: Υ-glutamylcarboxylase (Bos taurus, UniProt Q07175)
MEASURED_PROPERTY: IC50
MEAS_VALUE: 110

SAMPLE_SMILES: CC(C)=CCC/C(C)=C/CC/C(C)=C/CC/C(C)=C/CC/C(C)=C/CC/C(C)=C/CC/C(C)=C/CC/C(C)=C/CC/C(C)=C/CC1=CC(=O)C(C)=C(C)C1=O
TARGET_OF_ASSAY: Υ-glutamylcarboxylase (Bos taurus, UniProt Q07175)
MEASURED_PROPERTY: IC50
MEAS_VALUE: 85

SAMPLE_SMILES: COC1=C(OC)C(=O)C(CC=C(C)CCC=C(C)CCC=C(C)CCC=C(C)CCC=C(C)CCC=C(C)CCC=C(C)CCC=C(C)CCC=C(C)C)=C(C)C1=O
TARGET_OF_ASSAY: Υ-glutamylcarboxylase (Bos taurus, UniProt Q07175)
MEASURED_PROPERTY: IC50
MEAS_VALUE: 105

Sourced from patent EP1068805A1
